# Test system: A431
# experiment.description: MTT test, inhibition of cell proliferation
# Assay type: cell-based
# assay.conditions: Homo sapiens, A-431, 72 hours
pIC50: −log10 of the molar value.
pIC50 values by entry

CNC(=O)c1cc(Oc2ccc(NC(=O)Nc3nc(C)c(C(C)(C)C)s3)cc2)ccn1 :: 4.52 to 4.96

Now take the following molecule into account.
Qu. Retrieve pIC50 measured for CNC(=O)c1cc(Oc2ccc(CC(=O)Nc3ccc(Cl)c(C(F)(F)F)c3)cc2)ccn1 and print it.
Ans. 4.52 to 4.96

====

# Test system: KB
# experiment.description: MTT test, inhibition of cell proliferation
# Assay type: cell-based
# assay.conditions: Homo sapiens, 72 h, first listing (r12)
IC50 values by entry

CNC(=O)c1cc(Oc2ccc(NC(=O)Nc3nc(C)c(C(C)(C)C)s3)cc2)ccn1 :: 11 to 30 µM

Now take the following molecule into account.
Qu. Retrieve IC50 measured for CNC(=O)c1cc(Oc2ccc(CC(=O)Nc3ccc(Cl)c(C(F)(F)F)c3)cc2)ccn1 and print it.
Ans. 31 to 50 µM

====

# Tested on: HL-60
# experiment.description: MTT test, inhibition of cell proliferation
# Type: cell-based
# assay.conditions: Homo sapiens, 72 hours
pIC50: −log10 of the molar value.
pIC50 values by entry

CNC(=O)c1cc(Oc2ccc(CC(=O)Nc3ccc(Cl)c(C(F)(F)F)c3)cc2)ccn1 :: ≥ 5.00

Qu. Retrieve pIC50 measured for CNC(=O)c1cc(Oc2ccc(NC(=O)Nc3nc(C)c(C(C)(C)C)s3)cc2)ccn1 and print it.
Ans. 4.52 to 4.96
